This section lists log10(GI50) readings for A498.
Hi team, quick reminder: these entries are log10 of GI50 (nM).

Some compounds with known log10(GI50) results, for comparison:
Query Smiles | Target System | log10(GI50)
CN(C)CCNc1nc2ccccc2c2c(=O)c3cc(Cl)ccc3sc12 | A498 | 3.43
O=c1c2cc(Cl)ccc2sc2c(NCCCNCCO)nc3ccccc3c12 | A498 | 3.10
NCCNc1nc2ccccc2c2c(=O)c3cc(Cl)ccc3sc12 | A498 | 3.16
O=c1c2cc(Cl)ccc2sc2c(NCc3ccccc3)nc3ccccc3c12 | A498 | 3.91

Then there is this compound:
The value of log10(GI50) recorded for CCNc1nc2ccccc2c2c(=O)c3cc(Cl)ccc3sc12 when tested on A498 reads 4.18

Where do the numbers come from? From patent US8927717B1.
